# Test system: HOP-62 NSCLC
# assayText: NCI tumour cell line growth inhibition, 48 h
Where a SMILES comes first, the peptide text is derived from it. [ ]: non-standard residue; d: D form. The star is where a group is joined. ξ: configuration not given here. ξF = NC(Cc1ccccc1)C(=O)O; Cbz = O=C(OCc1ccccc1)*
Would you mind telling me the reported TGI of each entry?

Give the reported TGI for O=C(Nc1ccc(OC(F)(F)Cl)cc1)c1cnc(N2CC[C@@H](O)C2)c(-c2ccn[nH]2)c1 (system: HOP-62 NSCLC).
28.4 µM

Give the reported TGI for CC(=O)c1ccc(Nc2c3c(nc4ccccc24)CCCC3)cc1 (system: HOP-62 NSCLC).
> 47.3 µM

Give the reported TGI for C=C(C#N)C(=O)OCC(CC)CC.C=C(C#N)C(=O)OCC(CC)CC.CS(C)=O.CS(C)=O.Nc1c(N=Nc2ccc(-c3ccc(N=Nc4cc(S(=O)(=O)[O-])c5ccccc5c4N)cc3)cc2)cc(S(=O)(=O)[O-])c2ccccc12.[Pt+2] (system: HOP-62 NSCLC).
> 100 µM

Give the reported TGI for CC1=NN(c2nc(N)nc(C(C)Cl)n2)C(C)(C)C1 (stereo not given) (system: HOP-62 NSCLC).
> 100 µM

Give the reported TGI for CN1C(=O)CC(=O)N1/C(=C/c1ccccc1)c1ccccc1 (system: HOP-62 NSCLC).
> 100 µM

Give the reported TGI for O=C1N[C@@H]2CCCC[C@@H]2C12CCCCC2 (system: HOP-62 NSCLC).
> 100 µM

Give the reported TGI for CCN(/C=C1/C(=O)C(c2ccccc2)N(c2ccccc2)C1=O)CC (stereo not given) (system: HOP-62 NSCLC).
> 10 µM

Give the reported TGI for COc1cc(/C=C/c2csnn2)cc(OC)c1OC (system: HOP-62 NSCLC).
> 100 µM

Give the reported TGI for N#Cc1c(NC(=O)C(F)(F)F)sc2c3c(=O)c4ccccc4c(=O)c=3oc3ccccc3c12 (system: HOP-62 NSCLC).
> 61.9 µM

Give the reported TGI for Cc1cc(C)c(-c2no/c(=N\S(=O)(=O)c3ccc(Cl)cc3)o2)c(C)c1 (system: HOP-62 NSCLC).
> 100 µM

Give the reported TGI for S=C1SCN(Cc2ccccc2)CN1Cc1ccco1 (system: HOP-62 NSCLC).
26.8 µM

Give the reported TGI for C=CCC(CCC(C)=O)(C(=O)OCC)C(=O)OCC (system: HOP-62 NSCLC).
> 100 µM

Give the reported TGI for O=C1C2C3C=CC(C2C(=O)N1CO)C1C2C(=O)N(CO)C(=O)C2C31 (stereo not given) (system: HOP-62 NSCLC).
> 100 µM

Give the reported TGI for CSC(=O)/C=C1\SS/C(=C\C(=O)SC)S1 (system: HOP-62 NSCLC).
20.4 µM

Give the reported TGI for COC(=O)C(C(=O)C(=O)Nc1c(Cl)cc([N+](=O)[O-])cc1Cl)c1csc(-n2nc(C3=CCCCC3)cc2-c2ccccc2)n1 (stereo not given) (system: HOP-62 NSCLC).
> 100 µM

Give the reported TGI for COc1ccc(/C(Nc2ccccc2)=C(\CCl)c2ccccc2)cc1OC (system: HOP-62 NSCLC).
> 100 µM

Give the reported TGI for O=S(=O)(/N=C(\NO)Nc1ccc(Cl)cc1)c1cc(C(F)(F)F)cc(C(F)(F)F)c1 (system: HOP-62 NSCLC).
36.9 µM

Give the reported TGI for CCCCS(=O)c1sc2nc(-c3cccs3)cc(-c3ccccc3)c2c1N (stereo not given) (system: HOP-62 NSCLC).
> 100 µM

Give the reported TGI for CC(C)C(Cl)CCC(C)(Cl)C(=O)CBr (stereo not given) (system: HOP-62 NSCLC).
19.6 µM

Give the reported TGI for CCOC(=O)CNC(=O)C(Cc1ccccc1)NC(=O)OCc1ccccc1 (stereo not given) (Cbz-[ξF]-Gly-OEt) (system: HOP-62 NSCLC).
> 100 µM

====

Would you mind telling me the reported GI50 of each entry?
# Test system: HCT-116 colon
# assayText: NCI tumour cell line growth inhibition, 48 h

Data request, read-out GI50, for [O]=[V]([OH])([OH])[OH]
> 100 µM

Data request, read-out GI50, for C=CCN(CC=C)C(=O)c1cc(C)nc2c1c(=O)n(-c1ccccc1)c(=O)n2CCCN1CCN(c2ccccc2OC)CC1
> 50 µM

Data request, read-out GI50, for COc1ccc(-c2cc(/C=C/C(=O)c3ccc(N)cc3)[nH]n2)cc1OC
1.71 µM

Data request, read-out GI50, for COCCN(CCOC)c1nc(-c2ccccc2)nc2ccccc12
24.5 µM

Data request, read-out GI50, for O=C(Nc1ccc(OC(F)(F)Cl)cc1)c1cnc(N2CC[C@@H](O)C2)c(-c2ccn[nH]2)c1
10.8 µM

====

# System: OVCAR-3 ovarian
# assayText: NCI tumour cell line growth inhibition, 48 h
parameterMeasured: GI50

Data request, read-out GI50, for C=CCN(CC=C)C(=O)c1cc(C)nc2c1c(=O)n(-c1ccccc1)c(=O)n2CCCN1CCN(c2ccccc2OC)CC1
> 50000 nM

Data request, read-out GI50, for CCCCS(=O)c1sc2nc(-c3cccs3)cc(-c3ccccc3)c2c1N (stereo not drawn)
14300 nM

Data request, read-out GI50, for CC(C)[C@@H]1CC[C@]2(CO2)[C@@H]2C(=O)OCC(C(=O)O)=C[C@H]21
470 nM

Data request, read-out GI50, for CC(=O)Oc1c(C(=O)[O-])cc(C(C)C)cc1C(C)C.CC(=O)Oc1c(C(=O)[O-])cc(C(C)C)cc1C(C)C.CC(=O)Oc1c(C(=O)[O-])cc(C(C)C)cc1C(C)C.CC(=O)Oc1c(C(=O)[O-])cc(C(C)C)cc1C(C)C.[Cu+2].[Cu+2]
27300 nM

Data request, read-out GI50, for CSc1nc2nc(-c3ccccc3)c(C)c-2c2n1C(C)C(=O)N2 (stereo not drawn)
26800 nM

Data request, read-out GI50, for COc1ccc(-c2[nH]c3ccc(OC)cc3c2C=C(C#N)C#N)cc1
364 nM

Data request, read-out GI50, for COc1ccc(/C=C2\CCC/C(=C\c3ccc(OC)c(OC)c3)C2=O)cc1OC
2170 nM

Data request, read-out GI50, for Cc1cc(Cl)nc(N(CCNc2ccnc3cc(Cl)ccc23)Cc2ccco2)n1
1750 nM

====

# System: SW-620 colon
# assayText: NCI tumour cell line growth inhibition, 48 h
parameterMeasured: TGI

Data request, read-out TGI, for CCN(CC)CCNc1ccc2ncn3c4ccc(O)cc4c(=O)c1c23
8.84 µM

Data request, read-out TGI, for COc1ccc(-c2cc(/C=C/C(=O)c3ccc(N)cc3)[nH]n2)cc1OC
6.94 µM

Data request, read-out TGI, for CCOC(=O)c1cn(CC)c(=O)n2c1nc1ccccc12
> 100 µM

Data request, read-out TGI, for c1ccc(COC[C@H]2O[C@@H](c3ccccc3)C[C@@H](OCc3ccccc3)C2OCc2ccccc2)cc1 (stereo not given in full)
> 10 µM

Data request, read-out TGI, for CN1CCN(c2c(F)cc(NC3=C(Cl)C(=O)c4ncccc4C3=O)cc2F)CC1
3.82 µM

Data request, read-out TGI, for CC1NOC(=O)C1N=Nc1ccc(Cl)cc1Cl (stereo not given)
21.2 µM

Data request, read-out TGI, for Cc1cccc(Cn2cc(CO)c3cnccc32)c1
> 100 µM

Data request, read-out TGI, for COc1ccc(/C(Nc2ccccc2)=C(\CCl)c2ccccc2)cc1OC
> 100 µM

Data request, read-out TGI, for CC(=O)Oc1c(C(=O)[O-])cc(C(C)C)cc1C(C)C.CC(=O)Oc1c(C(=O)[O-])cc(C(C)C)cc1C(C)C.CC(=O)Oc1c(C(=O)[O-])cc(C(C)C)cc1C(C)C.CC(=O)Oc1c(C(=O)[O-])cc(C(C)C)cc1C(C)C.[Cu+2].[Cu+2]
> 100 µM

Data request, read-out TGI, for COCCOC1=C(Cl)C(=O)c2ccccc2C1=O
3.32 µM

Data request, read-out TGI, for CC(C)(C)OC(=O)N(CCCCNC(=O)C(F)(F)F)CCCNC(=O)C(F)(F)F
> 100 µM

Data request, read-out TGI, for CCN(/C=C1/C(=O)C(c2ccccc2)N(c2ccccc2)C1=O)CC (stereo not given)
> 10 µM

Data request, read-out TGI, for COC(=O)c1cc(S(=O)(=O)NC2=NCC(C)NN2)c(S)cc1Cl (stereo not given)
> 100 µM

Data request, read-out TGI, for Cc1nc2sc3cccc(Cl)c3n2c(=O)c1N=Nc1ccc(Cl)cc1
> 100 µM

Data request, read-out TGI, for CN=c1sc2c(n1C)C(=O)c1ccccc1C2=O
4.81 µM

Data request, read-out TGI, for Cc1ccccc1C(CCCO)C(=O)O (stereo not given)
> 100 µM

Data request, read-out TGI, for CC(=O)[CH-]C(=O)c1ccccc1.[C-]#[O+].[C-]#[O+].[Ir]
> 100 µM

Data request, read-out TGI, for CCCCCCCCCCCCCCCCCCNc1ccn(C2OC(COP(=O)(O)OCC3OC(n4ccc(N)nc4=O)C(O)C3O)C(O)C2O)c(=O)n1 (stereo not given)
> 100 µM

Data request, read-out TGI, for O=C1c2cc(O)c(O)cc2O[C@H](c2ccc(O)c(O)c2)[C@H]1O
> 100 µM

Data request, read-out TGI, for COc1cc(C(=O)/C=C/c2cccc(Nc3ccnc4cc(Cl)ccc34)c2)cc(OC)c1OC
2.44 µM

Data request, read-out TGI, for NC1=NC2(COC(c3ccccc3)(c3ccccc3)c3ccccc3)OC(COC(c3ccccc3)(c3ccccc3)c3ccccc3)C(O)C2O1 (stereo not given)
> 100 µM

Data request, read-out TGI, for O=C1c2cc3c(cc2-c2c1c1ccc(Cl)cc1c(=O)n2C[C@H](O)CO)OCO3
1.02 µM

Data request, read-out TGI, for COc1ccc(-c2nc3ccc(Cc4ccc5nc(-c6ccc(OC)cc6)[nH]c5c4)cc3[nH]2)cc1
0.173 µM

Data request, read-out TGI, for CCCC(=O)CC(C)C(=O)C(=O)NC12CC3CC(CC(C3)C1)C2 (stereo not given)
> 100 µM

Data request, read-out TGI, for COC(CN(C)C(=S)Nc1cccc2ccccc12)OC
> 10 µM

Data request, read-out TGI, for NNc1nnc(CCCCCCCCc2nnc(NN)n2N)n1N
> 100 µM

Data request, read-out TGI, for C#Cc1ccc(-n2c(/C=C/c3ccc(O)cc3)nc3ncccc3c2=O)cc1
> 100 µM

Data request, read-out TGI, for Nc1nc(=S)c2c(ncn2CCO)[nH]1
> 100 µM

Data request, read-out TGI, for NC1=NC(Cn2nc(-c3ccccc3)c3ccccc3c2=O)=NNC(=O)N1
> 100 µM

Data request, read-out TGI, for O=C(c1cccs1)c1c(C(F)(F)F)n([O-])c2cc(Cl)c(Cl)cc2[n+]1=O
0.865 µM

Data request, read-out TGI, for CCCCCC/C=C\CCCCCCCCC(=O)c1cccc(OC)c1OC
> 100 µM

Data request, read-out TGI, for C=C1CC[C@@H](CCC2CCC3(OC2)O[C@]2(O)CC[C@@]3(C)OC2(C)C)C(C)(C)[C@H]1C/C=C1\CCOC1=O (stereo not given in full)
> 100 µM

Data request, read-out TGI, for CC1=NN(c2nc(N)nc(C(C)Cl)n2)C(C)(C)C1 (stereo not given)
> 100 µM

Data request, read-out TGI, for Cn1c(CNc2ccc(-c3n[nH]c(=S)n3C)cc2)n[nH]c1=S
> 100 µM

Data request, read-out TGI, for CC(C)[C@@H]1CC[C@]2(CO2)[C@@H]2C(=O)OCC(C(=O)O)=C[C@H]21
> 100 µM

Data request, read-out TGI, for Cc1cc2nc3c(C#N)c(-c4ccccc4)/c(=C\Nc4ccc(F)cc4)c(=O)n3c2cc1C
> 100 µM

Data request, read-out TGI, for CCOc1cnc(C(O)(c2ccccc2)c2ccccc2)o1
> 100 µM

Data request, read-out TGI, for COc1cc(/C=C2\NC(=O)C(Cc3cc(OC)c(OC)c(C)c3OC)N(C(C)=O)C2=O)c(OC)c(C)c1OC (stereo not given)
> 100 µM

Data request, read-out TGI, for C=CCN(CC=C)C(=O)c1cc(C)nc2c1c(=O)n(-c1ccccc1)c(=O)n2CCCN1CCN(c2ccccc2OC)CC1
> 50 µM

Data request, read-out TGI, for CN1CCOC(C(NC(=O)c2ccccc2)c2ccccc2)C1=O (stereo not given)
> 100 µM
